Test description: In vitro metabolic stability in human liver microsomes
Type: in vitro ADME
Measurement parameters: 1 μM compound, 0.5 mg/mL protein
Exercise: state measured CLint scaled at 1 μM for each of the compounds provided.
Write the answer as a number in mL/min/kg, unit excluded.

Asked: Return reported CLint scaled at 1 μM; argument: O=C1NCc2c(-c3cnc4cc(F)ccn34)ccc(Nc3ccc4c(n3)OC[C@@H]3COCCN43)c21
Given back: 37

Asked: Query (compound): Cn1ccc2c(-c3ncc(Nc4ccc5c(n4)OC[C@H]4COCCN54)c4c3CNC4=O)ccnc21 [Trifluoroacetate of compound 20] ; field requested: CLint scaled at 1 μM
Given back: 63

Asked: Consider the compound shown here: O=C1NCc2c(-c3cnc4cc(F)ccn34)ccc(Nc3ccc4c(n3)OC[C@H]3COCCN43)c21 What is its recorded CLint scaled at 1 μM?
Given back: 39
